Give IC50 for every item shown.
System Name: α4β1 (Homo sapiens, UniProt P05556+P13612)
Construct: Ramos Cell Adhesion Assay (α4β1 Mediated Adhesion/VCAM-1); endogenous in cells; host or cells: Ramos cells
Assay Overview: Ramos Cell Adhesion Assay (α4β1 Mediated Adhesion/VCAM-1)
Type: cell-based
Details: Ramos cell adhesion to hVCAM-1; read-out: α4β1 IC50

Previously resolved entries follow.
>  <Molecule Smiles>
CN[C@H](C(=O)N[C@@H](Cc1ccc(-c2c(OC)cnn(C)c2=O)cc1)C(=O)O)[C@@H](C)OCc1ccccc1

>  <Result>
473 nM

$$$$
>  <Molecule Smiles>
Cn1ncc(OCc2cccnc2)c(-c2ccc(C[C@H](NC(=O)c3c(Cl)cccc3Cl)C(=O)O)cc2)c1=O

>  <Result>
133 nM

$$$$
>  <Molecule Smiles>
COc1cnn(C)c(=O)c1-c1ccc(C[C@H](NC(=O)C2(NC3CCCC3)CC2)C(=O)O)cc1

>  <Result>
472 nM

$$$$
>  <Molecule Smiles>
COc1cnn(C)c(=O)c1-c1ccc(C[C@H](NC(=O)C23CCC(CC2)CN3C(=O)OC(C)(C)C)C(=O)O)cc1

>  <Result>
2460 nM

$$$$
>  <Molecule Smiles>
CN1CCC(Oc2cnn(CCO)c(=O)c2-c2ccc(C[C@H](NC(=O)c3c(Cl)cccc3Cl)C(=O)O)cc2)CC1

>  <Result>
248 nM

$$$$
>  <Molecule Smiles>
COc1cnn(C)c(=O)c1-c1ccc(C[C@H](NC(=O)C2(NC(C)=O)CC2)C(=O)O)cc1

>  <Result>
> 5000 nM

$$$$

Batch request: IC50 per item, same order as input.
1. Cn1ncc(N)c(-c2ccc(C[C@H](NC(=O)c3c(Cl)cccc3Cl)C(=O)O)cc2)c1=O
2. COc1cnn(C)c(=O)c1-c1ccc(C[C@H](NC(=O)OCC(C)C)C(=O)O)cc1
3. O=C(N[C@@H](Cc1ccc(-c2c(OCCN3CCOCC3)cnn(CCO)c2=O)cc1)C(=O)O)c1c(Cl)cccc1Cl
4. Cn1ncc(N)c(-c2ccc(C[C@H](NC(=O)c3c(Cl)cccc3Cl)C(=O)OCCO)cc2)c1=O
5. COc1cnn(C)c(=O)c1-c1ccc(C[C@H](NC(=O)CCC(C)(C)C)C(=O)O)cc1
6. COc1cnn(C)c(=O)c1-c1ccc(C[C@H](NC(=O)C(C)(C)NC(N)=O)C(=O)O)cc1
7. COc1cnn(C)c(=O)c1-c1ccc(C[C@H](NC(=O)C2CCNCC2)C(=O)O)cc1

Response given:
1. 370 nM
2. > 5000 nM
3. 376 nM
4. > 5000 nM
5. 3300 nM
6. > 5000 nM
7. > 5000 nM

State the recorded IC50 for every item in the following list.
1. COc1cnn(C)c(=O)c1-c1ccc(C[C@H](NC(=O)C2(NC(=O)OC(C)(C)C)CCCC2)C(=O)O)cc1
2. COc1cnn(CC(C)=O)c(=O)c1-c1ccc(C[C@H](NC(=O)c2c(Cl)cccc2Cl)C(=O)O)cc1

Response given:
> 5000 nM
535 nM

----------
System Name: human α4β7 integrin (Homo sapiens, UniProt P13612+P26010)
Construct: expressed in transfected cells; host or cells: K562 cells, stably transfected
Sequence (P13612 34-1032): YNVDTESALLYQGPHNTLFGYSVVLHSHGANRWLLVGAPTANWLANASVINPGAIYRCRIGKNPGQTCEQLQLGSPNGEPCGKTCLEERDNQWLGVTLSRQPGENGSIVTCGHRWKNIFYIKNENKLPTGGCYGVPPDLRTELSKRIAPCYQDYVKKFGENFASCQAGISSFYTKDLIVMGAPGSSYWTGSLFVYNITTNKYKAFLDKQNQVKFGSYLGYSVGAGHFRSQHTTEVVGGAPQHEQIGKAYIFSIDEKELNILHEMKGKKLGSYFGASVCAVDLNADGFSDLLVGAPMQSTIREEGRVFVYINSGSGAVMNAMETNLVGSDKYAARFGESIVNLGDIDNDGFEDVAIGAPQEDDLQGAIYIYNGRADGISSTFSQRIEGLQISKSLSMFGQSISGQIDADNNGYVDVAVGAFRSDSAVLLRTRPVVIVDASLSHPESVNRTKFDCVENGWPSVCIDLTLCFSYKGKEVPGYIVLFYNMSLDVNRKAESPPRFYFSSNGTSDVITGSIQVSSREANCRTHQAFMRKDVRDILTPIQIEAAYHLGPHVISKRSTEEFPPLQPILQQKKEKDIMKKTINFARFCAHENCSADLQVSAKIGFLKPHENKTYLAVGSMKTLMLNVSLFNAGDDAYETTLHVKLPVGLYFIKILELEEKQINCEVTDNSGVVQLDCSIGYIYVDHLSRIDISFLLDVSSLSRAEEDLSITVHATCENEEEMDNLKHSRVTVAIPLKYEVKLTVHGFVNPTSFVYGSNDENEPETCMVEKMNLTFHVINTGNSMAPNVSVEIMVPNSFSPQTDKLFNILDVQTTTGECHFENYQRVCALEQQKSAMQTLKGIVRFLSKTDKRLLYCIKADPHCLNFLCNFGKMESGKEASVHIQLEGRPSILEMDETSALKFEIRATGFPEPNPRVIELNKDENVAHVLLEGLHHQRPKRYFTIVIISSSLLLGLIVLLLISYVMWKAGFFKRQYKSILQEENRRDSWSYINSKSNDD
Sequence (P26010 20-798): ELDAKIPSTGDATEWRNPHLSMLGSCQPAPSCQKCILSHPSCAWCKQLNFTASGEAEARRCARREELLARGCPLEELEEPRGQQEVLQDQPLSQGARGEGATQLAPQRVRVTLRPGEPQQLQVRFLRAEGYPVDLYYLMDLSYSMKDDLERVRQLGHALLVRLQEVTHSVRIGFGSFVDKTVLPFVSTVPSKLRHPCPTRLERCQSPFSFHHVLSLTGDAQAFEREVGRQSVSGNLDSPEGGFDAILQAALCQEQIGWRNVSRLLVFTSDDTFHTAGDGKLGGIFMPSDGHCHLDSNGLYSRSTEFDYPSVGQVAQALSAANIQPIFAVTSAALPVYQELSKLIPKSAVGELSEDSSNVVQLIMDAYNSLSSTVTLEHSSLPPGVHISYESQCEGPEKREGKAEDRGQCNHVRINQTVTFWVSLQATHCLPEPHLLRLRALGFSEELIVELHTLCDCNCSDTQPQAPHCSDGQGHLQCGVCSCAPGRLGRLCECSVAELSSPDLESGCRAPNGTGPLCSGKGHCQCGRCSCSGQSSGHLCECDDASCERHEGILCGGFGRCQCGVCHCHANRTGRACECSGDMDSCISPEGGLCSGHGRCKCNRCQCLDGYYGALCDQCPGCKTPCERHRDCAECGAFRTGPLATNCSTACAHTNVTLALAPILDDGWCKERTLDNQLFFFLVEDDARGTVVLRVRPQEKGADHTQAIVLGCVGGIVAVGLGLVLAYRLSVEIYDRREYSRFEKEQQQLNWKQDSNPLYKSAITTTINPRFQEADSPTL
Assay Overview: α4β7-K562 Cell Adhesion Assay (α4β7 Mediated Adhesion/MAdCAM-1)
Type: cell-based
Details: α4β7-K562 cell adhesion to hMAdCAM-1; read-out: α4β7 IC50
For each record, write down the corresponding pIC50.
Answers are plain numbers, as −log10 of the molar value.

Guide cases for pIC50, answers given:
>  <Molecule Smiles>
Nc1cnn(-c2ccccc2)c(=O)c1-c1ccc(C[C@H](NC(=O)c2c(Cl)cccc2Cl)C(=O)O)cc1

>  <System Name>
human α4β7 integrin (Homo sapiens, UniProt P13612+P26010)

>  <pIC50>
5.88

$$$$
>  <Molecule Smiles>
CC(C)Oc1cnn(CCO)c(=O)c1-c1ccc(C[C@H](NC(=O)c2c(Cl)cccc2Cl)C(=O)O)cc1

>  <System Name>
human α4β7 integrin (Homo sapiens, UniProt P13612+P26010)

>  <pIC50>
8.40

$$$$
>  <Molecule Smiles>
COc1cnn(C)c(=O)c1-c1ccc(C[C@H](NC(=O)C2(NC(C)C)CCOCC2)C(=O)O)cc1

>  <System Name>
human α4β7 integrin (Homo sapiens, UniProt P13612+P26010)

>  <pIC50>
7.23

$$$$
>  <Molecule Smiles>
COc1cnn(CC(=O)O)c(=O)c1-c1ccc(C[C@H](NC(=O)c2c(Cl)cccc2Cl)C(=O)O)cc1

>  <System Name>
human α4β7 integrin (Homo sapiens, UniProt P13612+P26010)

>  <pIC50>
8.70

$$$$
>  <Molecule Smiles>
COc1cnn(C)c(=O)c1-c1ccc(C[C@H](NC(=O)c2c(Cl)cccc2Cl)C(=O)NCCO)cc1

>  <System Name>
human α4β7 integrin (Homo sapiens, UniProt P13612+P26010)

>  <pIC50>
6.98

$$$$

Lab note: each compound below needs its pIC50 filled in.
1. COc1cnn(C)c(=O)c1-c1ccc(C[C@H](NC(=O)[C@@H]2C3CCC(CC3)N2C(=O)OCc2ccccc2)C(=O)O)cc1
2. COc1cnn(C)c(=O)c1-c1ccc(C[C@H](NC(=O)C2(NC3CCCCC3)CC2)C(=O)O)cc1
3. COc1cnn(CCO)c(=O)c1-c1ccc(C[C@H](NC(=O)c2c(Cl)cccc2Cl)C(=O)OCCO)cc1

Response given:
1. 7.17
2. 7.42
3. 5.86

Each of the following entries comes with a recorded value; kindly state pIC50 for each.
1. COc1cnn(C)c(=O)c1-c1ccc(C[C@H](NC(=O)CN(C)C(=O)OC(C)(C)C)C(=O)O)cc1
2. COc1cnn(C)c(=O)c1-c1ccc(C[C@H](NC(=O)C2(NC3CCCC3)CC2)C(=O)O)cc1
3. CN(C)c1cnn(C(C)(C)C)c(=O)c1-c1ccc(C[C@H](NC(=O)c2c(Cl)cccc2Cl)C(=O)O)cc1
4. COc1cnn(C)c(=O)c1-c1ccc(C[C@H](NC(=O)[C@H](C(C)C)N(C)C(=O)OC(C)(C)C)C(=O)O)cc1
5. COc1cnn(C)c(=O)c1-c1ccc(C[C@H](NC(=O)C2CCN(C(=O)OC(C)(C)C)CC2)C(=O)O)cc1

Response given:
1. 6.45
2. 7.89
3. 6.48
4. 7.89
5. 5.83

Provide the reported pIC50 of each entry below, same order.
1. COc1cnn(C)c(=O)c1-c1ccc(C[C@H](NC(=O)c2c(Cl)cccc2Cl)C(=O)OCC(C)(C)C)cc1
2. CC(C)(C)C(=O)Cn1ncc(NC2CC2)c(-c2ccc(C[C@H](NC(=O)c3c(Cl)cccc3Cl)C(=O)O)cc2)c1=O

Response given:
1: 5.57; 2: 7.28

The values you see were collected from patent US20050192279A1.
